The entries below are paired with their reported composite z-score.
Assay: small-molecule microarray binders of probe aEGFR, primary screen, biochemical, biotinylated probe, 635/667 nm fluorescence (AID 1097);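 also: probe is a biotinylated anti-EGFR antibody binding compounds printed on slides; score combines fluorescence near 667 nm and signal to noise of each spot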
Conditions: higher = more signal
# answer = number (no unit)

Recorded results for 2 compounds are shown here.
> print(dat)
                                givensmiles  datavalue
1  COc1cc(CO)cc(I)c1O[C@H]1C=C(C(=O)NCCO)C[C@@H](N(CC2CCCCC2)C(=O)c2cc3ccccc3oc2=O)[C@@H]1O    -0.0656
2  CCOC(=O)C[C@H]1[C@H](OC(=O)Cc2ccc3c(c2)OCO3)[C@@H](NC(=O)c2ccc3ccccc3c2)c2cc(OCCCO)ccc2N1C(=O)Cc1ccc(OC)cc1    -0.0331

Data request: Answer with reported composite z-score of `Cc1ccc(S[C@]2(C(=O)NC(C)C)CC(=O)N(Cc3cc(C(F)(F)F)cc(C(F)(F)F)c3)[C@@H]2c2ccc(CO)cc2I)cc1`
Data returned: -0.317
